Below, each entry is listed alongside its reported melting point.

COMPOUND: O=[N+]([O-])c1ccccc1S(=O)(=O)Nc1cccc2cc[nH]c12
melting point: 187 to 188 °C
--
COMPOUND: Cc1ccc(S(=O)(=O)Nc2cccc3cc[nH]c23)cc1
melting point: 159 to 160 °C
--
COMPOUND: CCCN(c1cccc2c1[nH]c1c(C)ccc(C)c12)S(=O)(=O)c1ccc(OC)cc1 [Compound 17c]
melting point: 60 to 62 °C
--
COMPOUND: Cc1ccc(C)c2c1[nH]c1c(NS(=O)(=O)c3ccc(Cl)cc3)cccc12
melting point: 217 to 218 °C
--
COMPOUND: O=S(=O)(Nc1cccc2cc[nH]c12)c1ccc(Cl)cc1
melting point: 163 to 164 °C
--
COMPOUND: O=S(=O)(Nc1cccc2cc[nH]c12)c1ccccc1 [Compound 5a, N-(1H-Indol-7-yl)benzenesulfonamide]
melting point: 178 to 179 °C
--
COMPOUND: COc1ccc(S(=O)(=O)N(C)c2cccc3c2[nH]c2c(C)ccc(C)c23)cc1 [Compound 15c]
melting point: 88 to 89 °C
--
COMPOUND: COc1ccc(S(=O)(=O)N(c2cccc3c2[nH]c2c(C)ccc(C)c23)C(C)C)cc1 [Compound 18c]
melting point: 222 to 224 °C

* * *

Below, each entry is listed alongside its reported pIC50.
- Test system: Human hepatoblastoma HepG2 cells
- MEASUREMENT_DESCRIPTION: SRB assay
- Assay type: cell-based
- REPORTED_CONDITIONS: 48 hr
pIC50: −log10 of the molar value.

COMPOUND: CCN(c1cccc2c1[nH]c1c(C)ccc(C)c12)S(=O)(=O)c1ccc(OC)cc1 [Compound 16c]
pIC50: 7.10
--
COMPOUND: COc1ccc(S(=O)(=O)Nc2cccc3c2[nH]c2c(C)ccc(C)c23)cc1
pIC50: 6.00
--
COMPOUND: Cc1ccc(C)c2c1[nH]c1c(NS(=O)(=O)c3ccc(Cl)s3)cccc12
pIC50: 5.57

* * *

Below, each entry is listed alongside its reported IC50.
- Test system: Human colorectal adenocarcinoma HT-29 cells
- MEASUREMENT_DESCRIPTION: MTT assay
- Format: cell-based
- REPORTED_CONDITIONS: 72 hr
- Experimental: Human Bladder Cancer TSGH cells, Human hepatoblastoma HepG2 cells, Human colorectal adenocarcinoma HT-29 cells, human nasopharyngeal carcinoma KB cells, Human gastric adenocarcinoma AGS cells, Human breast carcinoma MCF-7 cells, lung carcinoma A549 cells, and Human prostate carcinoma PC-3 cells were used in the preliminary cytotoxicity assays of the benzenesulfonamide derivatives of the present invention, and the inhibition activity against the tumor cells was evaluated. […]
ENDPOINT_LABEL: IC50

SMILES_STRUCTURE: O=S(=O)(Nc1cccc2c(/N=N/c3ccccc3)c[nH]c12)c1ccc(Cl)cc1
RESULT: 13.8 µM
--
SMILES_STRUCTURE: COc1ccc(S(=O)(=O)Nc2cccc3c2[nH]c2c(C)ccc(C)c23)cc1
RESULT: 0.4 µM
--
SMILES_STRUCTURE: O=[N+]([O-])c1ccc(S(=O)(=O)Nc2cccc3cc[nH]c23)cc1
RESULT: 113 µM
--
SMILES_STRUCTURE: Cc1ccc(S(=O)(=O)Nc2cccc3c(/N=N/c4ccccc4)c[nH]c23)cc1
RESULT: 17.9 µM

* * *

GI50 tested on Human breast carcinoma MCF-7 cells: recorded values
ENDPOINT_LABEL: GI50 (nM)

COMPOUND: COc1ccc(S(=O)(=O)Nc2cccc3c2[nH]c2c(C)ccc(C)c23)cc1
SUBJECT_OF_TEST: Human breast carcinoma MCF-7 cells
ENDPOINT_LABEL: GI50
REPORTED_RELATION: =
READOUT_NUMBER: 630

COMPOUND: CCN(c1cccc2c1[nH]c1c(C)ccc(C)c12)S(=O)(=O)c1ccc(OC)cc1 [Compound 16c]
SUBJECT_OF_TEST: Human breast carcinoma MCF-7 cells
ENDPOINT_LABEL: GI50
REPORTED_RELATION: =
READOUT_NUMBER: 400

COMPOUND: Cc1ccc(C)c2c1[nH]c1c(N(C)S(=O)(=O)c3ccc(Cl)s3)cccc12 [Compound 15k]
SUBJECT_OF_TEST: Human breast carcinoma MCF-7 cells
ENDPOINT_LABEL: GI50
REPORTED_RELATION: >
READOUT_NUMBER: 10000

COMPOUND: O=S(=O)(Nc1cccc2c1[nH]c1ccccc12)c1cccc(C(F)(F)F)c1 [Compound 21b]
SUBJECT_OF_TEST: Human breast carcinoma MCF-7 cells
ENDPOINT_LABEL: GI50
REPORTED_RELATION: >
READOUT_NUMBER: 10000

* * *

Below, each entry is listed alongside its reported pIC50.
- Test system: Human hepatoblastoma HepG2 cells
- MEASUREMENT_DESCRIPTION: SRB assay
- Format: cell-based
- REPORTED_CONDITIONS: 48 hr
pIC50: −log10 of the molar value.

MOLECULE: COc1ccc(S(=O)(=O)N(C)c2cccc3c2[nH]c2c(C)ccc(C)c23)cc1 [Compound 15c]
REPORTED_RELATION: <
pIC50: 5.00

MOLECULE: Cc1ccc(C)c2c1[nH]c1c(N(C)S(=O)(=O)c3ccc(Cl)s3)cccc12 [Compound 15k]
REPORTED_RELATION: =
pIC50: 5.80

MOLECULE: Cc1ccc(C)c2c1[nH]c1c(NS(=O)(=O)c3cccc(C(F)(F)F)c3)cccc12
REPORTED_RELATION: <
pIC50: 5.00

MOLECULE: COc1ccc(S(=O)(=O)Nc2cccc3c2[nH]c2ccccc23)cc1 [Compound 21a]
REPORTED_RELATION: =
pIC50: 7.10

MOLECULE: O=S(=O)(Nc1cccc2c1[nH]c1ccccc12)c1cccc(C(F)(F)F)c1 [Compound 21b]
REPORTED_RELATION: <
pIC50: 5.00

MOLECULE: COc1ccc(S(=O)(=O)N(c2cccc3c2[nH]c2c(C)ccc(C)c23)C(C)C)cc1 [Compound 18c]
REPORTED_RELATION: =
pIC50: 5.80

MOLECULE: CCCN(c1cccc2c1[nH]c1c(C)ccc(C)c12)S(=O)(=O)c1ccc(OC)cc1 [Compound 17c]
REPORTED_RELATION: =
pIC50: 5.72

MOLECULE: Cc1ccc(C)c2c1[nH]c1c(N(C)S(=O)(=O)c3cccc(C(F)(F)F)c3)cccc12 [Compound 15j]
REPORTED_RELATION: <
pIC50: 5.00

* * *

GI50 tested on Human breast carcinoma MCF-7 cells: recorded values

COMPOUND: Cc1ccc(C)c2c1[nH]c1c(N(C)S(=O)(=O)c3cccc(C(F)(F)F)c3)cccc12 [Compound 15j]
SUBJECT_OF_TEST: Human breast carcinoma MCF-7 cells
READOUT_UNITS: µM
GI50: 7.8
//
COMPOUND: COc1ccc(S(=O)(=O)N(c2cccc3c2[nH]c2c(C)ccc(C)c23)C(C)C)cc1 [Compound 18c]
SUBJECT_OF_TEST: Human breast carcinoma MCF-7 cells
READOUT_UNITS: µM
GI50: 9.5
//
COMPOUND: CCCN(c1cccc2c1[nH]c1c(C)ccc(C)c12)S(=O)(=O)c1ccc(OC)cc1 [Compound 17c]
SUBJECT_OF_TEST: Human breast carcinoma MCF-7 cells
READOUT_UNITS: µM
GI50: 6.1

* * *

- Tested on: A549 non-small cell lung cancer
- MEASUREMENT_DESCRIPTION: MTT assay
- Format: cell-based
- REPORTED_CONDITIONS: Homo sapiens, 72 hr
ENDPOINT_LABEL: IC50

MOLECULE: COc1ccc(S(=O)(=O)Nc2cccc3c2[nH]c2c(C)ccc(C)c23)cc1 [Compound 6c]
RESULT: 1.12 µM

* * *

Below, each entry is listed alongside its reported pIC50.
- Tested on: human nasopharyngeal carcinoma KB cells
- MEASUREMENT_DESCRIPTION: MTT assay
- Format: cell-based
- REPORTED_CONDITIONS: Homo sapiens, KB; MTT assay, 72 hr
pIC50: −log10 of the molar value.

COMPOUND: Cc1ccc(S(=O)(=O)Nc2cccc3c(/N=N/c4ccccc4)c[nH]c23)cc1
pIC50: < 4.70
--
COMPOUND: Cc1ccc(C)c2c1[nH]c1c(NS(=O)(=O)c3ccccc3[N+](=O)[O-])cccc12
pIC50: < 4.70
--
COMPOUND: Cc1ccc(C)c2c1[nH]c1c(NS(=O)(=O)c3ccccc3)cccc12
pIC50: < 4.70
--
COMPOUND: Cc1ccc(C)c2c1[nH]c1c(NS(=O)(=O)c3ccc([N+](=O)[O-])cc3)cccc12
pIC50: < 4.70
--
COMPOUND: O=S(=O)(Nc1cccc2cc[nH]c12)c1ccccc1 [Compound 5a, N-(1H-Indol-7-yl)benzenesulfonamide]
pIC50: < 4.70
--
COMPOUND: O=S(=O)(Nc1cccc2cc[nH]c12)c1ccc(Cl)cc1
pIC50: 4.70
--
COMPOUND: Cc1ccc(C)c2c1[nH]c1c(NS(=O)(=O)c3ccc(S(N)(=O)=O)cc3)cccc12
pIC50: 4.72
--
COMPOUND: Cc1ccc(C)c2c1[nH]c1c(NS(=O)(=O)c3ccc(Cl)cc3)cccc12
pIC50: < 4.70
--
COMPOUND: O=[N+]([O-])c1ccccc1S(=O)(=O)Nc1cccc2cc[nH]c12
pIC50: < 4.70
--
COMPOUND: COc1ccc(S(=O)(=O)Nc2cccc3cc[nH]c23)cc1
pIC50: 5.47
